Values compiled from ChEMBL document CHEMBL1938287.

- assayInfo: Half life in dog at 0.5 mg/kg, iv
- Assay type: ADME, organism-based, Canis lupus familiaris
- Set-up: dose 0.5 mg/kg, route intravenous
- appliedConditions: in vivo
measuredMetric: half-life
Quick note: number first, unit second.

Task item: Request the reported half-life associated with CC(C)(C)c1cc(NC(=O)NCc2ccccc2Sc2ccc3nnc(-c4ccccc4SCCO)n3c2)n(-c2ccc(O)c(Cl)c2)n1 [PF-03715455]
Reply: 30 min

====

- assayInfo: Oral bioavailability in rat at 0.5 mg/kg
- Assay type: ADME, organism-based
- appliedConditions: in vivo
measuredMetric: bioavailability

Task item: Request the reported bioavailability associated with `CC(C)(C)c1cc(NC(=O)NCc2ccccc2Sc2ccc3nnc(-c4ccccc4SCCO)n3c2)n(-c2ccc(O)c(Cl)c2)n1`
Reply: < 5%
